The reported numbers originate from patent US9440982B2.

Below, each entry is listed with its recorded pIC50.
# SUBJECT OF TEST: OX1 (Homo sapiens, UniProt O43613)
# Construct: expressed in transfected cells; host or cells: CHO (CHO-OX1, kept under selection antibiotic)
# Sequence (O43613 whole entry): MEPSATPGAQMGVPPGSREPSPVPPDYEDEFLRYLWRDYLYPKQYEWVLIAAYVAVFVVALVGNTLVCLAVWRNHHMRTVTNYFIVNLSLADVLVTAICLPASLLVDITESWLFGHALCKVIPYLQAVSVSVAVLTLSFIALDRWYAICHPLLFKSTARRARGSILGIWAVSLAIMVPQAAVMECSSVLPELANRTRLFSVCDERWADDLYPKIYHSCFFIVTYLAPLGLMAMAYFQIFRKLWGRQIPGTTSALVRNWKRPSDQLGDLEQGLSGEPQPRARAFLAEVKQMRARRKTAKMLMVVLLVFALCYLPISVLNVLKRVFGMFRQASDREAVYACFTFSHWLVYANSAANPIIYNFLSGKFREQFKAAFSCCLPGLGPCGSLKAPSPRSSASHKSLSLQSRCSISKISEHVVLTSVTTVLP
# PROTOCOL NOTES: Orexin receptor cell-based functional assay, [Ca2+]i by FLIPR, CHO-OX1 cells
# APPLIED CONDITIONS: Table 2; CHO-OX1 cells, EC90 of OXA; read-out: IC50 Bioactivity OX1
FYI, pIC50 means -log10 of a concentration in mol per litre.

Exercise: pIC50 of Cc1ccc(-c2ccc(C)nc2)c(C(=O)N2CCC[C@@H](C)[C@H]2CNc2ccc(C(F)(F)F)cn2)c1 (racemic) [Example 105] on OX1 (Homo sapiens, UniProt O43613)?
Key: 6.96

Exercise: pIC50 of CN(C)C1CCC(CNC(=O)c2cccc3cccnc23)N(C(=O)c2ccccc2-c2ccccc2)C1 (racemic) [Example 41] on OX1 (Homo sapiens, UniProt O43613)?
Key: 5.82

Exercise: pIC50 of Cc1nc(C(=O)N2CC(F)CCC2CNC(=O)c2cccc3cccnc23)c(-c2ccccc2)s1 (racemic) [Example 1] on OX1 (Homo sapiens, UniProt O43613)?
Key: 9.00

Exercise: pIC50 of Cc1nc(C(=O)N2CCC[C@@H](C)[C@H]2CNc2ccc(C(F)(F)F)cn2)c(-c2ccc(F)cc2)s1 (racemic) [Example 11] on OX1 (Homo sapiens, UniProt O43613)?
Key: 8.10

Exercise: pIC50 of Cc1nc(C(=O)N2CCC[C@@H](C)[C@H]2CNc2ccnc(Cl)n2)c(-c2ccc(F)cc2)s1 (racemic) [Example 19] on OX1 (Homo sapiens, UniProt O43613)?
Key: 6.57

Next:
Exercise: pIC50 of COc1ccnc(NC[C@@H]2[C@H](C)CCCN2C(=O)c2nc(C)sc2-c2ccc(F)cc2)n1 (racemic) [Example 17] on OX1 (Homo sapiens, UniProt O43613)?
Key: 7.28

Exercise: pIC50 of Cc1ccc(-n2cccn2)c(C(=O)N2CCC[C@@H](C)[C@H]2CNc2ccc(C(F)(F)F)cn2)c1 (racemic) [Example 120] on OX1 (Homo sapiens, UniProt O43613)?
Key: 8.52

Exercise: pIC50 of O=C(NC[C@@H]1[C@H]2CCCC[C@H]2CN1C(=O)c1ccccc1-c1ccccc1)c1cccc2cccnc12 (racemic) [Example 66] on OX1 (Homo sapiens, UniProt O43613)?
Key: 6.46

Exercise: pIC50 of O=C(NC[C@@H]1C[C@H](F)CN1C(=O)c1ccccc1-c1ccccc1)c1cccc2cccnc12 [Example 5] on OX1 (Homo sapiens, UniProt O43613)?
Key: 8.22

Exercise: pIC50 of Cc1nc(C(=O)N2C[C@H]3CCC[C@H]3C2COc2ccc(C(F)(F)F)cn2)c(-c2ccc(F)cc2)s1 (mixture of isomers) [Example 101] on OX1 (Homo sapiens, UniProt O43613)?
Key: 5.52

====

# SUBJECT OF TEST: CYP3A4 (Homo sapiens)
# Construct: pre-incubated with human liver microsomes and NADPH; from tissue; host or cells: human liver microsomes
# PROTOCOL NOTES: Cytochrome P450 inhibition assay (midazolam hydroxylation)
# Type: in vitro ADME
# APPLIED CONDITIONS: human, human liver microsomes, probe midazolam (hydroxylation to 1′-hydroxymidazolam), 10 μM test compound, midazolam at approximately its Km
Kindly return true if reported inhibition at 10 µM is no lower than 90%; return false if it is lower.

Exercise: Decide: inhibition at 10 µM of Cc1ccc(-n2nccn2)c(C(=O)N2CCC[C@@H](C)[C@H]2CNc2ncc(C#N)cn2)n1 >= 90%?
Key: false

Next:
Exercise: Decide: inhibition at 10 µM of CCn1cc(-c2ccc(C)cc2C(=O)N2CCC[C@@H](C)[C@H]2CNc2ccc(C(F)(F)F)cn2)cn1 >= 90%?
Key: true

Exercise: Decide: inhibition at 10 µM of Cc1ccc(NC[C@@H]2[C@H](C)CCCN2C(=O)c2cc(C)ccc2-c2ccccn2)nc1 >= 90%?
Key: false

Exercise: Decide: inhibition at 10 µM of Cc1c(F)ccc(C(=O)N2CCC[C@@H](C)[C@H]2CNc2ccc(C(F)(F)F)cn2)c1-c1ncccn1 >= 90%?
Key: false

Exercise: Decide: inhibition at 10 µM of Cc1ccc(-n2cccn2)c(C(=O)N2CCC[C@@H](C)[C@H]2CNc2ccc(C#N)cn2)c1 >= 90%?
Key: false

====

Below, each entry is listed with its recorded inhibition at 10 µM.
# SUBJECT OF TEST: CYP3A4 (Homo sapiens)
# Construct: pre-incubated with human liver microsomes and NADPH; from tissue; host or cells: human liver microsomes
# PROTOCOL NOTES: Cytochrome P450 inhibition assay (midazolam hydroxylation)
# Type: in vitro ADME
# APPLIED CONDITIONS: human, human liver microsomes, probe midazolam (hydroxylation to 1′-hydroxymidazolam), 10 μM test compound, midazolam at approximately its Km
Express your answer as a number followed by its unit.

Below: 3 molecules and their reported inhibition at 10 µM.
Exercise: What inhibition at 10 µM value was documented for this molecule, Cc1ccc(-n2nccn2)c(C(=O)N2CCC[C@@H](C)[C@H]2CN(C)c2ccc(C(F)(F)F)cn2)n1 [Example A194] ?
Key: 79%

Exercise: What inhibition at 10 µM value was documented for this molecule, Cc1c(F)ccc(C(=O)N2CCC[C@@H](C)[C@H]2CNc2ncc(C(F)(F)F)cn2)c1-c1ncccn1 [Example A347] ?
Key: 35%

Exercise: What inhibition at 10 µM value was documented for this molecule, Cc1ccc(-n2nccn2)c(C(=O)N2CCC[C@@H](C)[C@H]2CNc2ncc(Cl)cn2)n1 [Example A177] ?
Key: 39%

Next:
Exercise: What inhibition at 10 µM value was documented for this molecule, Cc1ccc(-n2ncc(C)n2)c(C(=O)N2CCC[C@@H](C)[C@H]2CNc2ccc(C(F)(F)F)nn2)c1 [Example A125] ?
Key: 75%

Exercise: What inhibition at 10 µM value was documented for this molecule, Cc1ccc(-c2cccnn2)c(C(=O)N2CCC[C@@H](C)[C@H]2CNc2ncc(C(F)(F)F)cn2)c1 [Example A198] ?
Key: 51%

Exercise: What inhibition at 10 µM value was documented for this molecule, COc1cccc(NC[C@@H]2[C@H](C)CCCN2C(=O)c2cc(C)ccc2-n2nccn2)n1 [Example A80] ?
Key: 28%

Exercise: What inhibition at 10 µM value was documented for this molecule, C[C@@H]1CCCN(C(=O)c2cccc(F)c2-n2nccn2)[C@@H]1CNc1ncc(C(F)(F)F)cn1 [Example A256] ?
Key: 52%

====

# SUBJECT OF TEST: OX2 (Homo sapiens)
# Construct: expressed in transfected cells; host or cells: CHO (CHO-OX2, kept under selection antibiotic)
# Sequence (O43614 whole entry): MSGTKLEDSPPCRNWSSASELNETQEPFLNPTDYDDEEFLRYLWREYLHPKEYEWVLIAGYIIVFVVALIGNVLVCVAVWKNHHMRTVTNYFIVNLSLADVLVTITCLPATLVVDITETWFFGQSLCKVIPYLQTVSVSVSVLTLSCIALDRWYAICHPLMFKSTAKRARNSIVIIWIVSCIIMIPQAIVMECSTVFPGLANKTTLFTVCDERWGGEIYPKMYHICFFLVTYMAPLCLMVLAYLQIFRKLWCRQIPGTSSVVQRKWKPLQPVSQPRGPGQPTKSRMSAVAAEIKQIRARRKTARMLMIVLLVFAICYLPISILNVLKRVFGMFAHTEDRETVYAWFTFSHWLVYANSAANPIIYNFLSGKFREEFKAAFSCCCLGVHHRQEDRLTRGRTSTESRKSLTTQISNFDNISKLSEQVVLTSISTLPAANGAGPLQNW
# PROTOCOL NOTES: Orexin receptor cell-based functional assay, [Ca2+]i by FLIPR, CHO-OX2 cells
# APPLIED CONDITIONS: [Ca2+]i by FLIPR, antagonist dose-range 0.1 nM-10 μM, EC90 of OXA, read-out: OX2
PROPERTY NAME: pIC50
FYI, pIC50 means -log10 of a concentration in mol per litre.

Below: 3 molecules and their reported pIC50.
Exercise: What pIC50 value was documented for this molecule, Cc1cc(C(=O)N2CCC[C@@H](C)[C@H]2CNc2ncc(C(F)(F)F)cn2)c(-n2nccn2)cc1F ?
Key: 5.52

Exercise: What pIC50 value was documented for this molecule, Cc1cc(F)c(-c2ncccn2)c(C(=O)N2CCC[C@@H](C)[C@H]2CNc2ncc(C(F)(F)F)cn2)c1 ?
Key: 6.77

Exercise: What pIC50 value was documented for this molecule, Cc1cc(F)c(-n2nccn2)c(C(=O)N2CCC[C@@H](C)[C@H]2CNc2ncc(C(F)(F)F)cn2)c1 ?
Key: 5.72

Lab note: next molecule to report on.
Exercise: What pIC50 value was documented for this molecule, Cc1ccc(F)c(C(=O)N2CCC[C@@H](C)[C@H]2CNc2ccc(C(F)(F)F)cn2)c1-c1ncccn1 ?
Key: 6.10

====

# SUBJECT OF TEST: CYP3A4 (Homo sapiens, UniProt P08684)
# Construct: pre-incubated with human liver microsomes and NADPH; from tissue; host or cells: human liver microsomes
# Sequence (P08684 whole entry): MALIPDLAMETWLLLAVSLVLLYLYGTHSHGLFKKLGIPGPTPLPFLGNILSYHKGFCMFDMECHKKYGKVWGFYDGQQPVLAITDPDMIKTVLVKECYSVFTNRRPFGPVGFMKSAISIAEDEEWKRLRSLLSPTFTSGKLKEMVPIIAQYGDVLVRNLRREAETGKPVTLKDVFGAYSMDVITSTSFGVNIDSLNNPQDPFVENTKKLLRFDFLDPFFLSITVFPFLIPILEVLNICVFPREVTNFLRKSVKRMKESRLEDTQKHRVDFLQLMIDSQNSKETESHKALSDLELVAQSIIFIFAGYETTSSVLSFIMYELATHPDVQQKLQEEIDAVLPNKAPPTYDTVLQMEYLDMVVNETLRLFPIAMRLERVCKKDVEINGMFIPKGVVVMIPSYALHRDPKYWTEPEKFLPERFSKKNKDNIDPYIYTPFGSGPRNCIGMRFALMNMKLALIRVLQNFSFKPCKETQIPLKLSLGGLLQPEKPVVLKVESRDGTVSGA
# PROTOCOL NOTES: Cytochrome P450 inhibition assay (midazolam hydroxylation)
# Assay type: in vitro ADME
# APPLIED CONDITIONS: human, human liver microsomes, probe midazolam (hydroxylation to 1′-hydroxymidazolam), 10 μM test compound, midazolam at approximately its Km
Below, each entry is listed with its recorded inhibition at 10 µM.
Write the answer as a number in %, unit excluded.

Exercise: What inhibition at 10 µM value was documented for this compound, Cc1ccc(-n2nccn2)c(C(=O)N2CCC[C@@H](C)[C@H]2CNc2cccc(C(F)(F)F)n2)c1 ?
Key: 92

Next:
Exercise: What inhibition at 10 µM value was documented for this compound, Cc1ccc(-n2ccc(C)n2)c(C(=O)N2CCC[C@@H](C)[C@H]2CNc2ccc(C(F)(F)F)nn2)c1 ?
Key: 86

Exercise: What inhibition at 10 µM value was documented for this compound, Cc1ccc(-c2cnn(C)c2)c(C(=O)N2CCC[C@@H](C)[C@H]2CNc2ncc(F)cc2F)c1 ?
Key: 92

Exercise: What inhibition at 10 µM value was documented for this compound, Cc1ccc(-n2nccn2)c(C(=O)N2CCC[C@@H](C)[C@H]2CNc2ncc(C(F)(F)F)cn2)c1 ?
Key: 60
